Values were extracted from the supplement of paper PMC4466140.

Some binders, each annotated with its measured SPOT peptide array binding signal intensity.
target: CaBem1-D1; test: SPOT peptide array binding signal intensity (averaged, normalized) (arbitrary units (background-subtracted, floor 0; scale differs between SH3 domains)); higher = stronger binding of the SH3 domain to the peptide
Quantity name: SPOT peptide array binding signal intensity

LRIKRKPVQTFFEFI; 16
RRRRRPHRIERPLSN; 53.5
FFRRSELYLPNSSKA; 9
RRASLFPRDPKRLRP; 83
FYHRPAPKPPVTKKV; 364
LKVTPGRRAPTISKI; 5
NHSRSLFSLPGNQQS; 27
IHTRRPSSTSQYLIR; 43
GKLKHIPRRPYEIER; 5
APKREAPKPPANTSP; 14
RTRRRPPPPPIPSTQ; 124
TKIRRRPQQPLTDFT; 13
